Assay: repose angle measured by powder tester PT-E (fluidity of anhydrous D-allose crystals)
Assay type: physicochemical
Details: drying tests of Table 6, crystals after the named drying conditions
endpoint-name: Repose angle (degrees)

> print(dat)
                                   molecule           endpoint.name  unit.text  observed.result
1  O=C[C@H](O)[C@H](O)[C@H](O)[C@H](O)CO [Conductive heat transfer drying at 70° C.] [D-allose]  Repose angle (degrees)    degrees               44
2  O=C[C@H](O)[C@H](O)[C@H](O)[C@H](O)CO [Conductive heat transfer drying at 50° C.] [D-allose]  Repose angle (degrees)    degrees               42
3  O=C[C@H](O)[C@H](O)[C@H](O)[C@H](O)CO [Convection heat transfer drying at 50° C., Air supply: 4700 ] [D-allose]  Repose angle (degrees)    degrees               42
4  O=C[C@H](O)[C@H](O)[C@H](O)[C@H](O)CO [Convection heat transfer drying at 40° C., Air supply: 3900 ] [D-allose]  Repose angle (degrees)    degrees             41.3
5  O=C[C@H](O)[C@H](O)[C@H](O)[C@H](O)CO [Convection heat transfer drying at 40° C., Air supply: 6000 ] [D-allose]  Repose angle (degrees)    degrees             41.7
6  O=C[C@H](O)[C@H](O)[C@H](O)[C@H](O)CO [Conductive heat transfer drying at 60° C.] [D-allose]  Repose angle (degrees)    degrees             41.7
7  O=C[C@H](O)[C@H](O)[C@H](O)[C@H](O)CO [Conductive heat transfer drying at 40° C.] [D-allose]  Repose angle (degrees)    degrees             41.3
8  O=C[C@H](O)[C@H](O)[C@H](O)[C@H](O)CO [Ultra-low humidity drying (20 to 24° C.), D-allose]  Repose angle (degrees)    degrees             45.7
